Values compiled from PubChem BioAssay.

# assay-method-text: growth suppression of PTEN-deleted HCT116, pilot screen, cell-based, HCT116 clonal line, CellTiter-Glo (AID 824);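 note: 0% = 20 µM Hyamine control and 100% = vehicle cell control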
# measurement-setup: 60 h, at 10 µM, active compounds read low
Inconclusive results are not listed.

[
  {
    "compound": "CSc1nc2ccc(NS(=O)(=O)c3ccc4c(c3)OCCO4)cc2s1",
    "viability, %": 88.4
  },
  {
    "compound": "CCCCCCSc1nc2c(c(=O)[nH]c(=O)n2C)n1C",
    "viability, %": 90.3
  },
  {
    "compound": "CCOc1cccc(=O)c2c(C)n(CC3CCCO3)c(C)c12 (stereo not given)",
    "viability, %": 90.4
  },
  {
    "compound": "CC(C)(C)n1nc2c(c1NC(=O)Cc1cccs1)CSC2",
    "viability, %": 92.4
  },
  {
    "compound": "COc1ccc(N(CC(=O)N2CCN(C)CC2)S(=O)(=O)c2ccccc2)cc1OC",
    "viability, %": 91.8
  }
]
